Property: amyloid nucleation score; scope: individual substances
test: amyloid nucleation score (Sup35N fusion, yeast selection) (log enrichment); library NNK2; higher = more nucleation; inactive = no reads after selection;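 note: zero at mode of non-aggregating sequences after 7 days selection at 30°C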
Measure Name: amyloid nucleation score

# Substance, Measure Name, Value Reported
records = [
    ("TTFMRVVLFAPVLYMYGKNR", "amyloid nucleation score", 5.49),
    ("LFRRGKILACIYA", "amyloid nucleation score", 0.016),
    ("WKTWSPKYWGSFVR", "amyloid nucleation score", -0.283),
    ("QNLSSLFKVYGTSSC", "amyloid nucleation score", -0.953),
    ("LYIVDPSTASKAHTSSLPKS", "amyloid nucleation score", -0.324),
    ("LFWHLHSNFIADVLLNVRLC", "amyloid nucleation score", 1.13),
    ("VMTYVEQVLGNVSVLIAIIT", "amyloid nucleation score", 0.015),
    ("VDIFMFKAAHIRAKGNVVGL", "amyloid nucleation score", -0.429),
    ("SNVWAQ", "amyloid nucleation score", 0.571),
    ("QVVEYN", "amyloid nucleation score", -0.047),
    ("MGPDMYVCKVWLGAVAYEMG", "amyloid nucleation score", 1.95),
    ("KLFFTDGFLYGNPLLSDGLD", "amyloid nucleation score", -0.58),
    ("LYTLVFIKNFISMYLREILT", "amyloid nucleation score", -1.8),
    ("QDRVFYIAYVNNVS", "amyloid nucleation score", 5.61),
    ("WFIRIAIMARSFCIIALVPR", "amyloid nucleation score", -1.22),
    ("DRMLCWDLGVIKNVLRTRVL", "amyloid nucleation score", -0.354),
    ("SMQFFFRS", "amyloid nucleation score", 6.51),
    ("GTVTLV", "amyloid nucleation score", 3.99),
]

###

experiment: amyloid nucleation score (Sup35N fusion, yeast selection) (log enrichment); library NNK2; higher = more nucleation; inactive = no reads after selection
Given measured amyloid nucleation score, output 1 if it is greater than or equal to 0.1 and 0 if not.

# Substance, Label Value
measured = [
    ("FDVSFILSL", 0),
    ("HYWIVRLDAWVSQSVRWCNP", 1),
    ("TLFSMVNSTLNGWWIMT", 1),
    ("GHNTYGYQRMRGCDV", 1),
    ("HWKAFYL", 1),
    ("LLGISLLSLWTFGYLSEIVV", 0),
    ("RQSFVVDNNELCKFTCDYSC", 1),
    ("SVAASGFHVV", 0),
    ("FDSEQLIRYD", 0),
    ("VYSLYNDRYYC", 0),
    ("RVQVPLGRAGTRISRSGKIW", 1),
    ("YKWWDLCLNFPCGRLKAQPR", 1),
    ("LLLHWRSWMRKCHVITCWSS", 1),
    ("SVIRMLYD", 0),
    ("RYMGGIWKSIRTS", 0),
    ("WWYPSGLDCFVVSFFRCHCV", 0),
    ("IYHFNFIFNYLMGDPPYRAT", 1),
    ("HGDNFSEVATTFNCMMLLNV", 0),
    ("AAILFSGDVLCLLRCYIAIK", 0),
    ("GSSVEMQLCELTSGGFDLSL", 1),
    ("SVRPRPD", 1),
    ("TRYYMYIRDVH", 0),
    ("EFAELSSRQRFWHMFV", 1),
    ("KFMCSELSNFCINCILRLVV", 0),
    ("CLWSSNSSSIWDIGRYFRR", 0),
    ("SICGEVYWWNLG", 0),
    ("KLHRSESVHVICTVCS", 1),
    ("YLYILVRNGGASSVC", 0),
    ("PYNMVVYLGLLSRC", 1),
    ("PMCYSVSSNLWVTTLQWGYL", 1),
    ("CAISYSFPGIFRQWCVFPDG", 0),
    ("CQDSALALGDVFVPDKGVVR", 1),
    ("DSLEGVSCSLMSLSTLTGEC", 1),
    ("SSTVAGAIIE", 1),
    ("ILDLWIVESKCFTSNMLHWV", 0),
]
